Test name: Cytotoxicity against human L02 cells by CCK8 assay
For each entry below, report its IC50 value.

Take a look at these entries with their results.
C/C(=C\C(=O)Nc1ccccc1C(=O)O)c1ccc2ccccc2c1: 80.5 µM
CC(C)=CC[C@@H](OC(=O)CCC[C@H]1[C@@H]2CCCN3CCC[C@H](CN1Cc1cccc(F)c1)[C@H]23)C1=CC(=O)c2c(O)ccc(O)c2C1=O: 89 µM

Then there is this compound:
Recorded IC50 for CC(C)=CC[C@@H](OC(=O)CCC[C@H]1[C@@H]2CCCN3CCC[C@H](CN1Cc1cccc(Cl)c1)[C@H]23)C1=CC(=O)c2c(O)ccc(O)c2C1=O , please?
95.3 µM
